- Tested on: Oryza sativa
- PROTOCOL_DETAILS: Toxicity in two leaf stage of Oryza sativa var. Nihonbare (rice) assessed as dose required to selectivity to Oryza sativa
- Assay type: organism-based
- EXPERIMENTAL_CONDITIONS: in vivo

| SMILES_STRUCTURE | UNIT_OF_MEASUREMENT | REL | MED |
| --- | --- | --- | --- |
| COc1nc(NC(=O)NS(=O)(=O)c2snc(C)c2COCCF)nc(OC)n1 | g/acre | = | 2.5 |
| COc1nc(NC(=O)NS(=O)(=O)c2ccccc2COCCF)nc(OC)n1 | g/acre | = | 2.5 |
| COC(=O)NCc1ccsc1S(=O)(=O)NC(=O)Nc1nc(OC)cc(OC)n1 | g/acre | = | 2.5 |
| COc1nc(NC(=O)NS(=O)(=O)c2sc3ccccc3c2COCCF)nc(OC)n1 | g/acre | < | 2.5 |
| COc1cc(C)nc(NC(=O)NS(=O)(=O)c2sccc2COCCF)n1 | g/acre | = | 0.156 |
| COc1cc(OC)nc(NC(=O)NS(=O)(=O)c2sccc2COCC(F)(F)Cl)n1 | g/acre | = | 1.25 |
| COc1nc(NC(=O)NS(=O)(=O)c2c(COCCF)cnn2C)nc(OC)n1 | g/acre | = | 1.25 |
